- PROTOCOL SUMMARY: chemical genetic growth profiling, strain panel (AID 1159580);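 note: tested at 20 µM; growth read once vehicle control cultures reached saturation at 30 °C; lower values mean less growth of the strain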
- CONDITION: S. cerevisiae deletion strains, growth OD, locus YBR229C, strain ROT2, active compounds read low
Screen size: about 5,500 compounds; about 2,000 (36%) were called active. About 18% were inconclusive and are not listed. This is one part of the list.
Returns: string. Value is fulfilled if measured normalized growth is below 1, and not fulfilled if it is greater than or equal to it.

C[C@@H]1OC(O[C@H]2C(O[C@H]3CC[C@@]4(C)C(CC[C@]5(C)C4CC=C4C6CC(C)(C)CC[C@]6(C(=O)O)CC[C@]45C)[C@]3(C)CO)OC[C@H](O)[C@@H]2O)[C@H](O)[C@H](O)[C@H]1O (stereo not given in full); fulfilled

Task item: # TODO verify normalized growth < 1 strictly for this compound: N[C@H](C(=O)O)[C@@H]1CC(Cl)=NO1
Reply: fulfilled

Task item: # TODO verify normalized growth < 1 strictly for this compound: O=C(CSCc1c(F)cccc1Cl)Nc1ccc(F)c(Cl)c1
Reply: fulfilled

Task item: # TODO verify normalized growth < 1 strictly for this compound: CC1(C)CC[C@@]2(C(=O)O)C(C1)C1=CCC3[C@@]4(C)CC[C@H](O)C(C)(C)C4CC[C@@]3(C)[C@]1(C)C[C@@H]2O (stereo not given in full)
Reply: not fulfilled
